// provenance: ChEMBL document CHEMBL1145985

experiment: Clearance measured after intravenous bolus administration of 50 mg/kg of compound to rats; type: ADME, organism-based; parameters: dose 50 mg/kg, route intravenous; details: rat, in vivo, read-out: CL (converted)
// reported clearance per item
API: value field is a number in mL/min/kg; no unit string.

compound: CN[C@H](CC(C)C)C(=O)N[C@H]1C(=O)N[C@@H](CC(N)=O)C(=O)N[C@H]2C(=O)N[C@H]3C(=O)N[C@H](C(=O)N[C@H](C(=O)O)c4cc(O)cc(O)c4-c4cc3ccc4O)[C@H](O)c3ccc(c(Cl)c3)Oc3cc2cc(c3OC2OC(CO)C(O)C(O)C2OC2CC(C)(NC(=O)OCc3cc(C)c(OC(=O)NCCOCCO)c(C)c3)C(O)C(C)O2)Oc2ccc(cc2Cl)[C@H]1O (some centres not stated)
measurement-unit: mL/min/kg
endpoint-result: 1.17

Query: Identify measured clearance associated with CN[C@H](CC(C)C)C(=O)N[C@H]1C(=O)N[C@@H](CC(N)=O)C(=O)N[C@H]2C(=O)N[C@H]3C(=O)N[C@H](C(=O)N[C@H](C(=O)O)c4cc(O)cc(O)c4-c4cc3ccc4O)[C@H](O)c3ccc(c(Cl)c3)Oc3cc2cc(c3OC2OC(CO)C(O)C(O)C2OC2CC(C)(NC(=O)OCc3cc(C)c(OC(=O)CNC(=O)COCCO)c(C)c3)C(O)C(C)O2)Oc2ccc(cc2Cl)[C@H]1O (some centres not stated)
Response: 2.19
